# System Tested: TYK2 (aa 871-1187, catalytic domain, GST-tag) (Homo sapiens, UniProt P29597)
# Construct: JAK1 (aa 850-1154) and TYK2 (aa 871-1187) are expressed with an N-terminally fused GST-tag; GST (N); purchased Carna Biosciences, Inc; host or cells: baculovirus expression system
# Sequence (P29597 871-1187): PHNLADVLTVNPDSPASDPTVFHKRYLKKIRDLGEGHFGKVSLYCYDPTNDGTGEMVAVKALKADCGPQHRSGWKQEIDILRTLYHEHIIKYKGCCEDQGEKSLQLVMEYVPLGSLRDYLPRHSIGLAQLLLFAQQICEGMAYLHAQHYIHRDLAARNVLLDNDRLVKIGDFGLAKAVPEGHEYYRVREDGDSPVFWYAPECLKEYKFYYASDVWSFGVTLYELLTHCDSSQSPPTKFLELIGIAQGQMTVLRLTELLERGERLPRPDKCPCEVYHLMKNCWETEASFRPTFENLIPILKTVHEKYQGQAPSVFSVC
# Method: JAK kinase assay (HTRF, phosphorylation of TK substrate-biotin), TYK2
# Type: biochemical
# Reported Conditions: HTRF assay, ATP at Km (13 μM); read-out: TYK2 kinase inhibitory activity (EC50 indicator)
pEC50: −log10 of the molar value.
Recorded pEC50, one value per entry.
Recorded Endpoint: pEC50

1. CCS(=O)(=O)Nc1ccc(C(=O)N2CCN(c3ncnc4[nH]ccc34)CC23CC3)cc1
> 7.00
2. NS(=O)(=O)c1cnn(CC(=O)N2CCN(c3ncnc4[nH]ccc34)CC23CC3)c1
< 6.30
3. Cc1c(C(=O)N2CCN(c3ncnc4[nH]ccc34)CC23CC3)sc2ccccc12
> 7.00
4. O=C(c1ccc2cc[nH]c2c1)N1[C@@H]2CC[C@@H]1CN(c1ncnc3[nH]ccc13)C2
6.30 to 7.00
5. Cc1ccc(CNS(=O)(=O)c2ccc(C(=O)N3CCN(c4ncnc5[nH]ccc45)CC34CC4)cc2)o1
> 7.00
6. NS(=O)(=O)c1ccc(C(=O)N2[C@@H]3CC[C@@H]2CN(c2ncnc4[nH]ccc24)C3)cc1
> 7.00
7. N#Cc1ccc(C2(C(=O)N3CCN(c4ncnc5[nH]ccc45)CC34CC4)CC2)cc1
6.30 to 7.00
8. CC(C)S(=O)(=O)Nc1ccc(C(=O)N2CCN(c3ncnc4[nH]ccc34)CC23CC3)cc1
6.30 to 7.00
9. COc1cnc2[nH]ccc2c1N1CCN(C(=O)Cc2cccc(C#N)c2)C2(CC2)C1
< 6.30
10. COc1cc(S(N)(=O)=O)ccc1C(=O)N1[C@@H]2CC[C@H]1CN(c1ncnc3[nH]ccc13)C2
6.30 to 7.00
11. N#Cc1ccc(CC(=O)N2CCN(c3ncnc4[nH]cc(Cl)c34)CC23CC3)cc1
< 6.30
12. N#CCc1ccc(CC(=O)N2[C@@H]3CC[C@@H]2CN(c2ncnc4[nH]ccc24)C3)cc1
< 6.30
13. CS(=O)(=O)c1ccc(CC(=O)N2CCN(c3ncnc4[nH]ccc34)CC23CC3)cc1
< 6.30
14. N#Cc1ccc(C(=O)N2CCN(c3ncnc4[nH]cc(Cl)c34)CC23CC3)cc1
< 6.30
15. O=C(c1cccc2cc(O)ccc12)N1[C@@H]2CC[C@@H]1CN(c1ncnc3[nH]ccc13)C2
6.30 to 7.00
16. O=C(Cc1ccc(F)cc1)N1CCN(c2ncnc3[nH]cc(Cl)c23)CC12CC2
< 6.30

* * *

# System Tested: JAK2 (catalytic domain, His-tag) (Homo sapiens, UniProt O60674)
# Construct: All four purified enzymes contain only the catalytic domain; His (N); purchased Carna Biosciences, Inc; host or cells: baculovirus expression system
# Sequence (O60674 849-1124 limits assumed): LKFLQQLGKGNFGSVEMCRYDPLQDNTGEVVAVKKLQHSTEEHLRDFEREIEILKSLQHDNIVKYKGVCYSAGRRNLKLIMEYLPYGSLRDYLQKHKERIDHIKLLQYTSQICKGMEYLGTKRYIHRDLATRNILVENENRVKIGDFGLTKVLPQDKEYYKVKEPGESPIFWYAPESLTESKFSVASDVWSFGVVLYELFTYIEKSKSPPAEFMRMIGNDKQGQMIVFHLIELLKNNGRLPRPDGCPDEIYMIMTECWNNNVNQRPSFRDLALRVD
# Method: JAK kinase assay (HTRF, phosphorylation of TK substrate-biotin), JAK2
# Format: biochemical
# Reported Conditions: HTRF assay, ATP at Km (4 μM); read-out: JAK2 kinase inhibitory activity (EC50 indicator)
Recorded Endpoint: EC50

1) CC(C)CNS(=O)(=O)c1csc(C(=O)N2CCN(c3ncnc4[nH]ccc34)CC23CC3)c1
< 100 nM
2) O=C(c1cccc2[nH]ccc12)N1[C@@H]2CC[C@H]1CN(c1ncnc3[nH]ccc13)C2
< 100 nM
3) COc1cc(S(N)(=O)=O)ccc1C(=O)N1[C@@H]2CC[C@H]1CN(c1ncnc3[nH]ccc13)C2
< 100 nM
4) O=C(c1ccc(OC(F)(F)F)cc1)N1[C@@H]2CC[C@@H]1CN(c1ncnc3[nH]ccc13)C2
100 to 500 nM
5) Cc1ccc(C(=O)N2C[C@@H]3C[C@H]2CN3c2ncnc3[nH]ccc23)s1
> 500 nM
6) CS(=O)(=O)c1ccc(C(=O)N2CCN(c3ncnc4[nH]ccc34)CC23CC3)cc1F
< 100 nM
7) Cc1cnc(C(=O)N2CCN(c3ncnc4[nH]ccc34)CC23CC3)cn1
< 100 nM
8) CS(=O)(=O)Nc1ccc(C(=O)N2CCN(c3ncnc4[nH]ccc34)CC23CC3)cc1
< 100 nM
9) N#Cc1ccc(CC(=O)N2CCN(c3ncnc4[nH]cc(Cl)c34)CC23CC3)cc1
< 100 nM
10) N#CCCCC(=O)N1CCN(c2ncnc3[nH]cc(Cl)c23)CC12CC2
> 500 nM
11) NS(=O)(=O)c1ccc(OCC(=O)N2CCN(c3ncnc4[nH]ccc34)CC23CC3)cc1
< 100 nM
12) CCc1sc(C(=O)N2CCN(c3ncnc4[nH]ccc34)CC23CC3)cc1Br
< 100 nM
13) O=C(Cc1ccc(C(F)(F)F)cc1)N1[C@@H]2CC[C@@H]1CN(c1ncnc3[nH]ccc13)C2
100 to 500 nM
14) COCCNS(=O)(=O)c1ccc(C(=O)N2CCN(c3ncnc4[nH]ccc34)CC23CC3)cc1
< 100 nM
15) N#Cc1ccc(C(=O)N2CCN(c3ncnc4[nH]cc(Cl)c34)CC23CC3)cc1
> 500 nM
16) O=C(Cc1ccc(C(F)(F)F)cc1)N1CCN(c2ncnc3[nH]cc(Cl)c23)CC12CC2
100 to 500 nM
17) CC(C)(C)OC(=O)NCCNS(=O)(=O)c1ccc(C(=O)N2CCN(c3ncnc4[nH]ccc34)CC23CC3)cc1
< 100 nM
18) N#Cc1ccccc1CC(=O)N1[C@@H]2CC[C@@H]1CN(c1ncnc3[nH]ccc13)C2
100 to 500 nM
19) NS(=O)(=O)c1ccc(CCC(=O)N2CCN(c3ncnc4[nH]ccc34)CC23CC3)cc1
< 100 nM
20) N#CCCCC(=O)N1CCN(c2nc(N)nc3[nH]ccc23)CC12CC2
< 100 nM
21) COc1csc(C(=O)N2CCN(c3ncnc4[nH]ccc34)CC23CC3)c1
< 100 nM
22) O=C(c1ccc2c(c1)CCCC2)N1CCN(c2ncnc3[nH]ccc23)CC12CC2
< 100 nM
23) CS(=O)(=O)c1ccc(C(=O)N2CCN(c3ncnc4[nH]ccc34)CC23CC3)cc1
< 100 nM
24) O=C(c1cnccn1)N1CCN(c2ccnc3[nH]ccc23)CC12CC2
< 100 nM
25) N#Cc1ccc(C(=O)N2CCN(c3ccnc4[nH]ccc34)CC23CC3)cc1
100 to 500 nM
26) Cc1sc(C(=O)N2CCN(c3ncnc4[nH]ccc34)CC23CC3)cc1Br
< 100 nM
27) COC(=O)c1cc2c(N3CCN(C(=O)Cc4ccc(C(F)(F)F)cc4)C4(CC4)C3)ncnc2[nH]1
> 500 nM
28) N#Cc1cccc(C(=O)N2CCN(c3ccnc4[nH]ccc34)CC23CC3)c1
< 100 nM
29) NS(=O)(=O)c1c[nH]c(C(=O)N2CCN(c3ncnc4[nH]ccc34)CC23CC3)c1
< 100 nM
30) Cc1cc(S(N)(=O)=O)ccc1C(=O)N1CCN(c2ncnc3[nH]ccc23)CC12CC2
< 100 nM
31) N#Cc1cccc(C(=O)N2CCN(c3nc(N)nc4[nH]ccc34)CC23CC3)c1
< 100 nM
32) Nc1nc(N2CCN(C(=O)c3cnc4ccccc4n3)C3(CC3)C2)c2cc[nH]c2n1
< 100 nM

* * *

# System Tested: JAK1 (aa 850-1154, catalytic domain, GST-tag) (Homo sapiens)
# Construct: JAK1 (aa 850-1154) and TYK2 (aa 871-1187) are expressed with an N-terminally fused GST-tag; GST (N); purchased Carna Biosciences, Inc; host or cells: baculovirus expression system
# Sequence (P23458 850-1154): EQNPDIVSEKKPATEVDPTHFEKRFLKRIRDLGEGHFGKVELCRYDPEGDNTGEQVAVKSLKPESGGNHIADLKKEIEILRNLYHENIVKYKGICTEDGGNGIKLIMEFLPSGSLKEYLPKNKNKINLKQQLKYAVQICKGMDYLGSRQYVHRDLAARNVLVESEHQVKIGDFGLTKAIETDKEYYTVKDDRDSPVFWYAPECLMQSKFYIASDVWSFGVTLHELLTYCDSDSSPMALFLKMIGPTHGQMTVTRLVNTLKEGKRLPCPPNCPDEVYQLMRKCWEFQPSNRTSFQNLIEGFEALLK
# Method: JAK kinase assay (HTRF, phosphorylation of TK substrate-biotin), JAK1
# Assay type: biochemical
# Reported Conditions: HTRF assay, ATP at Km (7 μM); read-out: JAK1 kinase inhibitory activity (EC50 indicator)
Recorded Endpoint: EC50

1) N#CCCCS(=O)(=O)c1ccc(C(=O)N2CCN(c3ncnc4[nH]ccc34)CC23CC3)cc1 [Example 408]
< 100 nM
2) N#CCCNS(=O)(=O)c1ccc(C(=O)N2CCN(c3ncnc4[nH]ccc34)CC23CC3)cc1 [Example 395]
< 100 nM
3) COC(=O)c1cc2c(N3CCN(C(=O)CCC#N)C4(CC4)C3)ncnc2[nH]1 [Example 340]
> 500 nM
4) CCCc1cc(C(=O)N2CCN(c3ncnc4[nH]ccc34)CC23CC3)cs1 [Example 207]
< 100 nM
5) Cc1c[nH]c2ncnc(N3CCN(C(=O)Cc4ccc(C#N)cc4)C4(CC4)C3)c12 [Example 334]
100 to 500 nM
6) N#CCCCC(=O)N1CCN(c2ncnc3[nH]cc(Cl)c23)CC12CC2 [Example 322]
> 500 nM
7) N#CCOc1cccc(C(=O)N2[C@@H]3CC[C@@H]2CN(c2ncnc4[nH]ccc24)C3)c1 [Example 343]
< 100 nM
8) COc1cnc2[nH]ccc2c1N1CCN(C(=O)c2cc3ccccc3[nH]2)C2(CC2)C1 [Example 288]
> 500 nM
9) N#Cc1ccc2[nH]c(C(=O)N3CCN(c4ncnc5[nH]ccc45)CC34CC4)cc2c1 [Example 217]
< 100 nM
10) NS(=O)(=O)c1ccc(-c2ccc(C(=O)N3CCN(c4ncnc5[nH]ccc45)CC34CC4)o2)cc1 [Example 400]
< 100 nM
11) O=C(c1cc2cccc(F)c2[nH]1)N1CCN(c2ncnc3[nH]ccc23)CC12CC2 [Example 362]
< 100 nM
12) Nc1nc(N2CCN(C(=O)c3cnc4ccccc4n3)C3(CC3)C2)c2cc[nH]c2n1 [Example 305]
< 100 nM
13) NS(=O)(=O)c1cccc(CC(=O)N2CCN(c3ncnc4[nH]ccc34)CC23CC3)c1 [Example 398]
< 100 nM
14) N#Cc1cccc(CC(=O)N2CCN(c3nc(N)nc4[nH]ccc34)CC23CC3)c1 [Example 311]
100 to 500 nM
15) NS(=O)(=O)c1ccc(SCC(=O)N2CCN(c3ncnc4[nH]ccc34)CC23CC3)cc1 [Example 404]
< 100 nM
16) O=C([C@H]1CCCc2ccccc21)N1CCN(c2ncnc3[nH]ccc23)CC12CC2 [Example 416]
100 to 500 nM
